Data origin: ChEMBL document CHEMBL1145135

inhibition values by entry
# system_name: Tumor necrosis factor (Mus musculus)
# assay_protocol: Tested for inhibition of Tumor necrosis factor, alpha in LPS-stimulated mice at a dose of 30 mg/kg

{"smi": "COc1ccc(-n2nc(C(C)(C)C)cc2NC(=O)Nc2ccc(OCCN3CCOCC3)c3ccccc23)cn1", "system_name": "Tumor necrosis factor (Mus musculus)", "inhibition [%]": 40}
{"smi": "Cc1ccc(-n2nc(C(C)(C)C)cc2NC(=O)Nc2ccc(OCCN3CC[S+]([O-])CC3)c3ccccc23)cc1", "system_name": "Tumor necrosis factor (Mus musculus)", "inhibition [%]": 84}
{"smi": "Cc1ccc(-n2nc(C(C)(C)C)cc2NC(=O)Nc2ccc(OCCn3ccnc3)c3ccccc23)cc1", "system_name": "Tumor necrosis factor (Mus musculus)", "inhibition [%]": 81}
{"smi": "Cc1ccc(-n2nc(C(C)(C)C)cc2NC(=O)Nc2ccc(OCCN3C[C@H](C)O[C@@H](C)C3)c3ccccc23)cc1", "system_name": "Tumor necrosis factor (Mus musculus)", "inhibition [%]": 50}
{"smi": "Cc1ccc(-n2nc(C(C)(C)C)cc2NC(=O)Nc2ccc(OCCN3CCOCC3)c3ccccc23)cn1", "system_name": "Tumor necrosis factor (Mus musculus)", "inhibition [%]": 87}
{"smi": "Cc1ccc(-n2nc(C(C)(C)C)cc2NC(=O)Nc2ccc(OCCN3CCOCC3)c3ccccc23)cc1", "system_name": "Tumor necrosis factor (Mus musculus)", "inhibition [%]": 84}
{"smi": "Cc1ccc(-n2nc(C(C)(C)C)cc2NC(=O)Nc2ccc(OCCc3ccncc3)c3ccccc23)cc1", "system_name": "Tumor necrosis factor (Mus musculus)", "inhibition [%]": 88}
{"smi": "CC(C)(C)c1cc(NC(=O)Nc2ccc(OCCN3CCOCC3)c3ccccc23)n(-c2ccccc2)n1", "system_name": "Tumor necrosis factor (Mus musculus)", "inhibition [%]": 81}
